- assay_text: Inhibition of Mycobacterium tuberculosis acyl-CoA corboxylase corboxyltransferase domain 5
assay_readout: pKi
Answers are plain numbers, as −log10 of the molar value.

Given item Nc1ccc(/N=N/c2ccc(-c3ccc(O)cc3)cc2)c2ccc(S(=O)(=O)O)cc12 , the value recorded as its pKi is 4.89

* * *

- target_entity: Enoyl-[acyl-carrier-protein] reductase [NADH] (Mycobacterium tuberculosis, UniProt P9WGR1)
- Sequence (P9WGR1 whole entry): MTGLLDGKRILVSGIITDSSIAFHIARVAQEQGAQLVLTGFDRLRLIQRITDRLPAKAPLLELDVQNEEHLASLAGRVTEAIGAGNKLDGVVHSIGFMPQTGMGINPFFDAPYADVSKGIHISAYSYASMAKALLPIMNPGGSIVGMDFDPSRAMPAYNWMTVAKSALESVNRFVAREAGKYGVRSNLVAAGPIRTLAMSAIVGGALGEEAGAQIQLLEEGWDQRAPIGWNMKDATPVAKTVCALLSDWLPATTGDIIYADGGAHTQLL
assay_readout: pKi
Give bare numbers, as −log10 of the molar value.

For reference, reported pKi for CCCCCCCCc1ccc(Oc2ccccc2)c(O)c1 stands at 9.00

All values here come from ChEMBL document CHEMBL1149916.
